# Lookup of reported pEC50 keyed by entry
biological target: hSTING (Homo sapiens, UniProt Q86WV6, G230A/H232R/R293Q/R71H); assay: STING reporter assay (luciferase) in THP1-Dual KO-IFNAR2 cells stimulated with 2′3′cGAMP; details: 15 μM 2′3′cGAMP transfected, 24 h, luciferase reporter activity
Sequence (Q86WV6 whole entry R71H/G230A/H232R/R293Q): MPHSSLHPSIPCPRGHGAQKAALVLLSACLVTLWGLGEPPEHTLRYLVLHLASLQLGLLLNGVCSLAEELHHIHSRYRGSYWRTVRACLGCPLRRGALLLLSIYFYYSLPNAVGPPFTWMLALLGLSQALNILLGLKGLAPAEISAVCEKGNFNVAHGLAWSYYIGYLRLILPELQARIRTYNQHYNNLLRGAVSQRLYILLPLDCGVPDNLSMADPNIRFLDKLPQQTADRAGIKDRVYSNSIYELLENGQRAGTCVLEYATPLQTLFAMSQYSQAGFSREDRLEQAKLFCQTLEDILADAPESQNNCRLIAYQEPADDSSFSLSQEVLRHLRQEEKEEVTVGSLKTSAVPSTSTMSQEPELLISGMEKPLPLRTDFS
pEC50: −log10 of the molar value.

O=C(CCc1cn[nH]c1)Nc1c[nH]c2ccc(-c3cnn(-c4ccc(C(F)(F)F)cc4)c3)cc12 : 6.00 to 6.70
O=C(CN1CCCC1=O)Nc1c[nH]c2ccc(-c3cnn(-c4ccc(C(F)(F)F)cc4)c3)cc12 : 5.30 to 6.00
COC1(CC(=O)Nc2c[nH]c3ccc(-c4cnn(-c5ccc(C(F)(F)F)cc5)c4)cc23)CCC1 : 6.00 to 6.70
O=C(CCN1CCOC1=O)Nc1c[nH]c2ccc(-c3cnn(-c4ccc(C(F)(F)F)cc4)c3)cc12 : 6.00 to 6.70
CCOc1cccc(CCC(=O)Nc2c[nH]c3cc(F)c(F)cc23)c1 : 6.00 to 6.70

q: Given the compound "Cc1ccc(OCCC(=O)Nc2c[nH]c3cc(F)c(F)cc23)cc1" , what is its reported pEC50?
a: 6.00 to 6.70

q: For "CC(C)(Oc1ccc(F)cc1)C(=O)Nc1c[nH]c2cc(F)c(F)cc12" then?
a: 4.00 to 5.30

q: Lookup "Cn1ccc(CC(=O)Nc2c[nH]c3ccc(-c4cnn(-c5ccc(C(F)(F)F)cc5)c4)cc23)n1"
a: 6.00 to 6.70
